tested on: IL-4 (Homo sapiens, UniProt P05112)
Construct: purchased Acros Biosystems IL4-H4218; host or cells: HEK-293
protocol notes: HEK-Blue IL-4/IL-13 cell-based reporter (SEAP) IL-4 inhibition assay
cond: Example 2, quadruplicate; read-out: EC50 of IL-4 inhibition in HEK-Blue IL-4/IL-13 cells
attribute measured: pEC50
Quick note: pEC50 values are minus log10 of concentrations in mol/L.

Known pEC50 results, listed for orientation:
1) COc1ccc(-c2cc(-c3cccnc3)nc(N)c2C#N)cc1O [Compound 25] | 4.66
2) N#Cc1c(-c2ccc(O)c(O)c2)cc(-c2ccc(F)cc2)nc1N [Compound D9] | 5.24

Now consider a different compound.
Fill in: pEC50 of N#Cc1c(-c2ccc(O)c(O)c2)cc(-c2ccc(F)cc2)nc1N [Compound 1] is ___ 4.34

----------
tested on: IL-4 (Homo sapiens)
Construct: purchased Acros Biosystems IL4-H4218; host or cells: HEK-293
Sequence (P05112 25-153): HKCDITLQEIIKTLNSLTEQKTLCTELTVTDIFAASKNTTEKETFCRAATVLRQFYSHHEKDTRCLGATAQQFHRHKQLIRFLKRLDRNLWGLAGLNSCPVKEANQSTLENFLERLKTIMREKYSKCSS
protocol notes: HEK-Blue IL-4/IL-13 cell-based reporter (SEAP) IL-4 inhibition assay
cond: 1 uM; percent activity in HEK-Blue IL-4/IL-13; in %
Decide using Activity at 1 uM: a value greater than or equal to 50 is MET, a smaller one is NOT MET.

1. COc1ccc(-c2cc(C3CCCOC3)c(C#N)c(=O)[nH]2)cc1 (stereo not drawn) | MET
2. Cc1ccc(-c2cc(-c3ccc(F)cc3)nc(N)c2C#N)s1 | MET
3. COc1ccc(-c2cc(-c3ccc(O)c(OC)c3)c(C#N)c(=O)[nH]2)cc1 | MET
4. COc1ccc(-c2cc(-c3ccccc3)c(C#N)c(S)n2)cc1 | NOT MET
5. COc1ccc(-c2cc(-c3ccc4ccccc4c3)c(C#N)c(=O)[nH]2)cc1 | MET

Does `COc1ccc(-c2cc(-c3ccccc3O)c(C#N)c(=O)[nH]2)cc1` have a reported Activity at 1 uM of at least 50? NOT MET

Check `COc1ccc(-c2cc(-c3ccccc3)c(C#N)c(=O)[nH]2)cc1` too. MET

----------
Entries and their EC50 values follow.
tested on: IL-4 (Homo sapiens, UniProt P05112)
Construct: purchased Acros Biosystems IL4-H4218; host or cells: HEK-293
Sequence (P05112 25-153): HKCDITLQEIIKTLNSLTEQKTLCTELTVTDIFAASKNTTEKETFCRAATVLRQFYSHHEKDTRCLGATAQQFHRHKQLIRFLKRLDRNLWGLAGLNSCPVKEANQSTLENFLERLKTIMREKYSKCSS
protocol notes: HEK-Blue IL-4/IL-13 cell-based reporter (SEAP) IL-4 inhibition assay
cond: Table 3; read-out: EC50
Express it in nM; write the number only.

1. N#Cc1c(-c2ccc(O)c(O)c2)cc(-c2ccc(F)cc2)nc1N [Compound 1] | 1560

Now consider a different molecule.
# value lookup — system IL-4 (Homo sapiens, UniProt P05112), readout EC50, item COc1ccc(-c2cc(-c3ccc(OC)c(O)c3)c(C#N)c(N)n2)cc1 [Compound 30] 3880
